All figures here come from patent US10975056B2.

Molecular target: UniProt Q9UBC3
Experiment: DNMT3B breaklight assay
Format: biochemical
Conditions: read-out: DNMT3B Breaklight IC50
pIC50: −log10 of the molar value.
parameter-measured: pIC50

Please review the following examples before continuing.
molecule=CCc1c(C#N)c(N)nc(S[C@@H](C(N)=O)c2ccccc2)c1C#N parameter_measured=pIC50 recorded_result="< 3.30"
molecule="CCc1c(C#N)c(SC(C(N)=O)c2ccccc2)nc(N2CCN(CC)CC2)c1C#N (stereo not drawn)" parameter_measured=pIC50 recorded_result="< 3.30"

Kindly review the next molecule as well.
So the reported pIC50 for CCc1c(C#N)c(SC(C(N)=O)c2ccccc2)nc(N2CCNC(=O)C2)c1C#N (stereo not drawn) , on UniProt Q9UBC3, turned out to be < 3.30

====

System: erythroid progenitor cells (EPCs)
Assay: Fetal hemoglobin (HbF) ELISA in day 7 erythroid progenitor cells;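 further: for fetal hemoglobin induction normalized to vehicle-treated cells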
Format: cell-based, human
Conditions: Homo sapiens, Erythroid progenitor cell, HbF ELISA, day 7 EPCs, 5 days; read-out: EPC ELISA (pEC50 category) (converted)
Where a name gives a salt, the structure may show the parent alone.
parameter-measured: EC50

Before answering, review these 2 worked examples.
molecule="CCOc1c(C#N)c(SC(C(N)=O)c2ccccc2)nc(N2CCCN(CCO)CC2)c1C#N (centres unmarked)" parameter_measured=EC50 recorded_result="316 to 1000 nM"
molecule="CCc1c(C#N)c(SC(C(N)=O)c2ccccc2)nc(N2CCC(NCC(C)(C)C)CC2)c1C#N (centres unmarked)" parameter_measured=EC50 recorded_result="< 316 nM"

// field: EC50; key: CCc1c(C#N)c(SCc2ccc(S(N)(=O)=O)cc2)nc(N2CCC(N)CC2)c1C#N ; value = 1000 to 31600 nM

What the record says about CCc1c(C#N)c(SC(C(N)=O)c2ccccc2)nc(N(C)CCCN)c1C#N (centres unmarked) [Example 670, hydrochloride] : EC50 is < 316 nM

====

# EC50 listing for each entry below
Tested on: erythroid progenitor cells (EPCs)
Experiment: Fetal hemoglobin (HbF) ELISA in day 7 erythroid progenitor cells;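 further: for fetal hemoglobin induction normalized to vehicle-treated cells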
Assay type: cell-based, human
Conditions: Homo sapiens, Erythroid progenitor cell, HbF ELISA, day 7 EPCs, 5 days; read-out: EPC ELISA (pEC50 category) (converted)

Would you please look over these solved cases?
molecule="CCc1c(C#N)c(SC(C(N)=O)c2ccccc2)nc(N2CCC(OCCO)CC2)c1C#N (centres unmarked)" recorded_result="316 to 1000 nM"
molecule=CCc1c(C#N)c(SCc2ccc(N)nc2)nc(N2CCCN(C)CC2)c1C#N recorded_result="1000 to 31600 nM"
molecule="CCc1c(C#N)c(SC(C(N)=O)c2ccccc2)nc(N(C)CC(=O)N(C)CC(C)(C)CO)c1C#N (centres unmarked)" recorded_result="< 316 nM"
molecule=CCc1c(C#N)c(SCc2ccc(C(=O)O)cc2)nc(N2CCCN(C)CC2)c1C#N recorded_result="> 31600 nM"
molecule="CCc1c(C#N)c(SC(C(N)=O)c2ccc(F)cc2)nc(N2CC[C@H](O)C2)c1C#N (some centres unmarked)" recorded_result="316 to 1000 nM"
molecule="CCc1c(C#N)c(SC(C(N)=O)c2ncccc2OC)nc(N2CCCN(C)CC2)c1C#N (centres unmarked)" recorded_result="316 to 1000 nM"

With erythroid progenitor cells (EPCs) as the test system, CCc1c(C#N)c(SCc2ccc(C(N)=O)cc2)nc(N2CCCN(C)CC2)c1C#N showed EC50 of 316 to 1000 nM

Lab note: molecule CCc1c(C#N)c(SC(C(N)=O)c2ccccc2)nc(N2CCN(C(C)(C)CO)CC2)c1C#N (centres unmarked) tested on erythroid progenitor cells (EPCs); recorded EC50 was 316 to 1000 nM

The measured EC50 that CCOc1c(C#N)c(C)nc(SC(C(N)=O)c2ccccc2)c1C#N (centres unmarked) showed for erythroid progenitor cells (EPCs) is > 31600 nM

The molecule CCc1c(C#N)c(SC(C(N)=O)c2ccccc2)nc(N2CCO[C@@H](CNC(=O)CN)C2)c1C#N (some centres unmarked) on erythroid progenitor cells (EPCs): EC50 was 1000 to 31600 nM

Tested on erythroid progenitor cells (EPCs): CCc1c(C#N)c(SC(C(N)=O)c2ccncc2F)nc(N2CCCN(C)CC2)c1C#N (centres unmarked) . Observed EC50: > 31600 nM
